The measurements presented in this section are drawn from ChEMBL document CHEMBL1150122.

- System: CCRF-CEM
- TEST: Cytotoxicity against camptothecin-resistant human CCRF-CEM cells after 3 days by SRB assay
- Assay type: functional, cell-based
- EXPERIMENTAL_PARAMETERS: 72 h
MEASURE_NAME: pIC50
A value of pIC50 is the negative decimal logarithm of a concentration given in moles per litre.

C/C1=C/C[C@@H](/C(C)=C/c2csc(C)n2)OC(=O)C[C@H](O)C(C)(C)C(=O)[C@H](C)[C@@H](O)[C@@H](C)CCC1: 7.82

(Q) Hello, please tell me recorded pIC50 for this one: CC1=C/C[C@@H](/C(C)=C/c2csc(C)n2)OC(=O)C[C@H](O)C(C)(C)C(=O)[C@H](C)[C@@H](O)[C@@H](C)C\C=C\1
(A) 7.96

###

- System: CCRF-CEM
- TEST: Cytotoxicity against human CCRF-CEM cells after 3 days by SRB assay
- Type: functional, cell-based
- EXPERIMENTAL_PARAMETERS: 72 h
MEASURE_NAME: IC50 (nM)
Provide only the numeric value, understood in nM.

C/C1=C/C[C@@H](/C(C)=C/c2csc(C)n2)OC(=O)C[C@H](O)C(C)(C)C(=O)[C@H](C)[C@@H](O)[C@@H](C)CCC1: 22

Turning now to a further compound:
(Q) Hello, please tell me recorded IC50 for this one: CC1=C/C[C@@H](/C(C)=C/c2csc(C)n2)OC(=O)C[C@H](O)C(C)(C)C(=O)[C@H](C)[C@@H](O)[C@@H](C)C\C=C\1
(A) 23

###

- Tested on: MCF7
- TEST: Cytotoxicity against human MCF7 cells after 3 days by SRB assay
- Assay type: functional, cell-based
- EXPERIMENTAL_PARAMETERS: MCF7, 72 h
Listing: IC50 of selected compounds
Provide only the numeric value, understood in nM.

C/C1=C/C[C@@H](/C(C)=C/c2csc(C)n2)OC(=O)C[C@H](O)C(C)(C)C(=O)[C@H](C)[C@@H](O)[C@@H](C)CCC1: 8

Turning now to a further compound:
(Q) Hello, please tell me recorded IC50 for this one: CC1=C/C[C@@H](/C(C)=C/c2csc(C)n2)OC(=O)C[C@H](O)C(C)(C)C(=O)[C@H](C)[C@@H](O)[C@@H](C)C\C=C\1
(A) 28

###

- System: SF-268
- TEST: Cytotoxicity against human SF268 cells after 3 days by SRB assay
- Type: functional, cell-based
- EXPERIMENTAL_PARAMETERS: SF-268, 72 h
Listing: pIC50 of selected compounds
A value of pIC50 is the negative decimal logarithm of a concentration given in moles per litre.

C/C1=C/C[C@@H](/C(C)=C/c2csc(C)n2)OC(=O)C[C@H](O)C(C)(C)C(=O)[C@H](C)[C@@H](O)[C@@H](C)CCC1 [EPOTHILONE D]: 7.85

Turning now to a further compound:
(Q) Hello, please tell me recorded pIC50 for this one: CC1=C/C[C@@H](/C(C)=C/c2csc(C)n2)OC(=O)C[C@H](O)C(C)(C)C(=O)[C@H](C)[C@@H](O)[C@@H](C)C\C=C\1
(A) 7.40
